Below, pIC50 values reported for Angiopoietin-1 receptor (Homo sapiens, UniProt Q02763) across several publications.
pIC50: −log10 of the molar value.
endpoint_label: pIC50

>>> df
                            structure_smiles  endpoint_label  recorded_measurement
 0  COc1cc(Nc2ncnc(Nc3nc(-c4ccccc4)cs3)n2)cc(OC)c1OC           pIC50                < 4.99
 1  Nc1nc2ccccc2n1-c1ncnc(Nc2ccc3c(c2)OCO3)n1           pIC50          5.16 to 5.94
 2  CC(C)(C)OC(=O)N1CCC(Nc2nc(-c3ccncc3)nc3ccccc23)CC1           pIC50          5.00 to 6.00
 3  COc1cc(Nc2ncnc(-c3cccnc3Cl)n2)cc(OC)c1OC           pIC50                < 4.92
 4  O=C(O)Cc1ccc(Nc2ncnc(Nc3cc(-c4ccco4)n[nH]3)n2)cc1           pIC50                < 4.92
 5       COCCOc1ccc(Nc2ncnc(-c3ccccc3)n2)cc1           pIC50                < 4.86
 6  COc1cc(Nc2ncnc(-n3c(NCCc4ccccn4)nc4ccccc43)n2)cc(OC)c1OC           pIC50                < 5.04
 7  CC(C)c1cccc(NC(=O)N2CCN(c3nccnc3OCc3ccnc(N)n3)CC2)c1           pIC50                > 7.30
 8  Nc1nccc(COc2cccnc2N2CCN(C(=O)Nc3cc(C(F)(F)F)cc(C(F)(F)F)c3)CC2)n1           pIC50                > 7.30
 9  COc1ccc(-c2nc(-c3ccncc3)nn2CCN(C(=O)Nc2cccc(F)c2)C2CCCC2)cc1Cl           pIC50          5.00 to 6.00
10         CN(C)CCNc1nc(-c2ccncc2)nc2ccccc12           pIC50                ≤ 5.00
11  COc1cc(-c2cnc(N)c3c(-c4ccc5[nH]ccc5c4)csc23)cc(OC)c1OC           pIC50          6.00 to 6.99
12  COc1cc(Nc2ncnc(-c3ccnc(NCCCO)c3)n2)cc(OC)c1OC           pIC50                < 4.96
13  CCc1ccc(F)c(NC(=O)N2CCN(c3nccnc3OCc3ccnc(N)n3)CC2)c1           pIC50                > 7.30
14  CCc1cc(NC(=O)N2CCN(c3nsnc3OCc3ccnc(N)n3)CC2)cc(C(F)(F)F)c1           pIC50                > 7.30
15  CCc1ccc(F)c(NC(=O)N2CCN(c3nsnc3OCc3ccnc(N)n3)CC2)c1           pIC50          6.00 to 7.30
16  O=C(Cc1cccc2ccccc12)N(CCn1nc(-c2ccncc2)nc1-c1ccc(Cl)cc1Cl)C1CCCC1           pIC50                > 7.30

----------
pIC50: −log10 of the molar value.
Below, pIC50 values reported for UniProt:Q02763 across several publications.
endpoint_label: pIC50

                                   compound     measured_on  endpoint_label  recorded_measurement
0  CC1CN(c2nc3ccccc3nc2OCc2ccncc2)CCN1C(=O)Nc1cccc(C(F)(F)F)c1 (centres unmarked)  UniProt:Q02763           pIC50          6.00 to 7.30
1  CCc1cc(Cl)cc(NC(=O)N2CCN(c3ncccc3OCc3ccnc(NC(=O)CN4CCN(C)CC4)c3)CC2)c1  UniProt:Q02763           pIC50                > 7.30
2  Cc1nc2c(-c3ccc(N4CCN(C)CC4)cc3)cnn2c(N)c1-c1ccc(F)cc1  UniProt:Q02763           pIC50                < 5.00
3  COC(=O)c1cccc(Nc2nc3ccccc3n2-c2ncnc(Nc3cc(OC)c(OC)c(OC)c3)n2)c1  UniProt:Q02763           pIC50          5.18 to 5.34
4  COc1ccc(-c2nc(-c3ccncc3)nn2CCN(C(=O)Nc2cc(F)ccc2C)C2CCCC2)cc1Cl  UniProt:Q02763           pIC50          5.00 to 6.00
5  COc1ccc(Nc2ncnc(Nc3cc(OC)c(OC)c(OC)c3)n2)cc1  UniProt:Q02763           pIC50                < 4.93
6     c1ccc2c(NCC3CCCCC3)nc(-c3ccncc3)nc2c1  UniProt:Q02763           pIC50          5.00 to 6.00
7              Nc1ncnc(-n2c(N)nc3ccccc32)n1  UniProt:Q02763           pIC50                < 4.70

----------
Below, IC50 values reported for UniProtKB Q02763 across several publications.
endpoint_label: IC50

In [3]: df
Out[3]:
                                    compound  endpoint_label  recorded_measurement
 0  CCN1CCC(C(=O)Nc2cc(COc3nsnc3N3CCN(C(=O)Nc4cc(C(F)(F)F)cc(C(F)(F)F)c4)CC3)ccn2)CC1            IC50             < 0.05 µM
 1  COc1cc(Nc2ncnc(-n3c(NCc4ccc(C)cc4)nc4ccccc43)n2)cc(OC)c1OC            IC50             > 9.04 µM
 2  CN(C)c1cccc(COc2nsnc2N2CCN(C(=O)Nc3cc(C(F)(F)F)cc(C(F)(F)F)c3)CC2)c1            IC50               ≥ 10 µM
 3  COc1cc(Nc2ncnc(N(c3ccc(Cl)cc3)c3nc4ccccc4[nH]3)n2)cc(OC)c1OC            IC50      0.794 to 4.76 µM
 4  COc1ccc(-c2nc(-c3ccncc3)nn2CCN(C(=O)Cc2cccc3ccccc23)C2CCCC2)cc1OC            IC50             < 0.05 µM
 5  CNC(=O)c1cc(Oc2ccc(NC(=O)Nc3cc(C(C)(C)C)nn3-c3ccc(C)cc3)cc2)ccn1            IC50             0.0072 µM
 6  COc1ccc(Nc2ncnc(Nc3ccc(OC)c(OC)c3)n2)cc1OC            IC50             > 11.7 µM
 7  COc1cc(Nc2ncnc(-n3c(=O)[nH]c4ccccc43)n2)cc(OC)c1OCCN1CCOCC1            IC50             > 9.12 µM
 8  O[C@@H]1CCC[C@H]1Nc1nc(-c2cccnc2)nc2ccccc12            IC50               ≥ 10 µM
 9  O=C(Cc1cccc2ccccc12)N(CCc1nc(-c2ccncc2)no1)C1CCCC1            IC50          0.05 to 1 µM
10  COc1cc(Nc2ncnc(N(CCC(C)C)c3ccc(Cl)cc3)n2)cc(OC)c1OC            IC50      0.873 to 5.24 µM
11  CN1CCN(CC(=O)Nc2cc(COc3cccnc3N3CCN(C(=O)Nc4cc(Cl)cc(C(F)(F)F)c4)CC3)ccn2)CC1            IC50             < 0.05 µM
12  COc1cccc(-c2nc(-c3ccncc3)nn2CCN(C(=O)Cc2cccc3ccccc23)C2CCCC2)c1            IC50             < 0.05 µM
13  COc1ccc(-c2nc(-c3ccncc3)nn2CCN(C(=O)Nc2cccc([N+](=O)[O-])c2C)C2CCCC2)cc1Cl            IC50               ≥ 10 µM
14  CCOc1ccc(Nc2ncnc(Nc3ccc(OCc4ccccc4)cc3)n2)cc1OCC            IC50       5.25 to 7.65 µM
15   Cc1cccc(Nc2ncnc(Nc3ccc4[nH]ccc4c3)n2)c1            IC50             > 14.2 µM
16      c1ccc2c(NN3CCCCC3)nc(-c3ccncc3)nc2c1            IC50               ≥ 10 µM
17  Nc1nccc(COc2cccnc2N2CCN(C(=O)Nc3cc(Cl)ccc3F)CC2)n1            IC50          0.05 to 1 µM
18  COc1ccc(-c2nc(-c3ccncc3)nn2CCN(C(=O)Nc2c(C)cccc2C)C2CCCC2)cc1Cl            IC50               ≥ 10 µM
19  Nc1nccc(COc2nsnc2N2CCN(C(=O)Nc3cc(C(F)(F)F)cc(C(F)(F)F)c3)CC2)n1            IC50             < 0.05 µM
20  COc1cccc(Nc2ncnc(Nc3ccc(OCc4ccccc4)cc3)n2)c1            IC50             > 11.3 µM
21  COc1ccc(NC(=O)N(CCn2nc(-c3ccncc3)nc2-c2ccc(OC)c(Cl)c2)C2CCCC2)c(OC)c1            IC50               ≥ 10 µM
22  Nc1cc(COc2nsnc2N2CCN(C(=O)Nc3cccc4ccccc34)CC2)ccn1            IC50               ≥ 10 µM
23  O=C(Cc1cccc2ccccc12)N(CCn1nc(-c2ccncc2)nc1C1CCNCC1)C1CCCC1            IC50             < 0.05 µM
24  Cc1nc(-c2ccncc2)nn1CCN(CC1CCCO1)C(=O)Cc1cccc2ccccc12 (centres unmarked)            IC50          0.05 to 1 µM
25  OC[C@H](Cc1ccccc1)Nc1nc(-c2ccncc2)nc2ccccc12            IC50            1 to 10 µM
26  CCc1cc(NC(=O)N2CCN(c3ncccc3OCc3ccnc(N)n3)CC2)ccc1F            IC50             < 0.05 µM
27  COc1ccc(S(=O)(=O)Nc2ccc(-c3cnc4nc3NCCCNS(=O)(=O)c3cccc(c3)N4)cc2)cc1            IC50                ≤ 1 µM
28  Cc1nc2c(-c3cccc(N4CCN(CCO)CC4)c3)cnn2c(N)c1-c1ccc(F)c(F)c1            IC50               > 10 µM
29  O[C@@H]1Cc2ccccc2[C@@H]1Nc1nc(-c2ccncc2)nc2ccc(Cl)cc12            IC50             < 0.05 µM
30   Cc1cccc(Nc2ncnc(Nc3ccc4[nH]ncc4c3)n2)c1            IC50         7.56 to 11 µM
31  COc1cc(Nc2ncnc(Nc3ccc4c(ccn4Cc4ccccc4)c3)n2)cc(OC)c1OC            IC50       4.97 to 7.25 µM
